# TARGET SYSTEM: human NK3 receptor (Homo sapiens, UniProt P29371)
# Construct: expressed in transfected cells; membranes prepared from them
# Sequence (P29371 whole entry): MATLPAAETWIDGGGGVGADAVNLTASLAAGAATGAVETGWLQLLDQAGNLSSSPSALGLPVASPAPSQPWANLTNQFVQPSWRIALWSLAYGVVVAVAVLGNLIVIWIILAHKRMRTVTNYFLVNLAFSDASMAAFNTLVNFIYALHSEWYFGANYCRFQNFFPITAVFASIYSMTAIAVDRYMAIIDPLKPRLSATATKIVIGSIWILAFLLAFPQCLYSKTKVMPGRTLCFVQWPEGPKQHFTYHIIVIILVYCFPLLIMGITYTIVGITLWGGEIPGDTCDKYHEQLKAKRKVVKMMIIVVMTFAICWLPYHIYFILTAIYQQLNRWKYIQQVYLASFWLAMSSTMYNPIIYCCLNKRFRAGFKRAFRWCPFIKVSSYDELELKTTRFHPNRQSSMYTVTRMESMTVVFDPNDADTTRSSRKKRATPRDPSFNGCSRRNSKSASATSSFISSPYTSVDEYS
# MEASUREMENT PROTOCOL: NK3 receptor efficacy and potency assay (FLIPR Calcium 4 assay, BHK cells; agonist and antagonist mode versus NKB)
# Type: cell-based
# CONDITION SUMMARY: read-out: Potency cIC50
Please assign False whenever IC50 is at or above 70 nM, and True whenever it is below.

Q: Please indicate whether the reported IC50 of CC[C@H](NC(=O)c1c(CN2CCN(C(C)(C)C)CC2)n(-c2ccccc2)c(=O)c2c(F)cccc12)c1ccccc1 is strictly below 70 nM.
A: True

Q: Please indicate whether the reported IC50 of COc1cccc(C2(O)CCN(Cc3c(C(=O)NC(c4cccc(F)c4)C4CC4)c4ccccc4c(=O)n3-c3ccccc3)CC2)c1 (centres unmarked) is strictly below 70 nM.
A: True

Q: Please indicate whether the reported IC50 of O=C(N[C@H](c1cccc(F)c1)C1CC1)c1c(CN2CCCC2=O)n(-c2ccccc2)c(=O)c2c(Cl)cccc12 is strictly below 70 nM.
A: True

Q: Please indicate whether the reported IC50 of O=C(NC(c1cccc(F)c1)C1CC1)c1c(CN2CCC(CCN3CCOCC3)CC2)n(-c2ccccc2)c(=O)c2ccccc12 (centres unmarked) is strictly below 70 nM.
A: True

Q: Please indicate whether the reported IC50 of O=C(NC(c1cccc(F)c1)C1CC1)c1c(CN2CCN(Cc3ccncc3)CC2)n(-c2ccccc2)c(=O)c2ccccc12 (centres unmarked) is strictly below 70 nM.
A: True

Q: Please indicate whether the reported IC50 of CC[C@H](NC(=O)c1c(C)n(-c2ccccc2)c(=O)c2c(Cl)cccc12)c1ccccc1 is strictly below 70 nM.
A: False

Q: Please indicate whether the reported IC50 of Cc1c(C(=O)N[C@H](c2ccccc2)C2CCC2)c2cccc(Cl)c2c(=O)n1-c1ccccc1 is strictly below 70 nM.
A: True

Q: Please indicate whether the reported IC50 of O=C(NC(c1cccc(F)c1)C1CC1)c1c(CN2CCN(CCN3CCCCC3)CC2)n(-c2ccccc2)c(=O)c2ccccc12 (centres unmarked) is strictly below 70 nM.
A: True

Q: Please indicate whether the reported IC50 of CC[C@H](NC(=O)c1c(CNC(C)(C)C)n(-c2ccccc2)c(=O)c2ccccc12)c1ccccc1 is strictly below 70 nM.
A: False

Q: Please indicate whether the reported IC50 of CC[C@H](NC(=O)c1c(CN2CCN(c3ccc4ncccc4c3)CC2)n(-c2ccccc2)c(=O)c2ccccc12)c1ccccc1 is strictly below 70 nM.
A: False

Q: Please indicate whether the reported IC50 of Cc1c(C(=O)N[C@H](c2cccc(F)c2)C2CC2)c2cccc(Cl)c2c(=O)n1-c1ccccc1 is strictly below 70 nM.
A: True

Q: Please indicate whether the reported IC50 of CC[C@H](NC(=O)c1c(CN2CCN(CCN3CCOCC3)CC2)n(-c2ccccc2)c(=O)c2ccccc12)c1ccccc1 is strictly below 70 nM.
A: True

Q: Please indicate whether the reported IC50 of CC[C@H](NC(=O)c1c(CN2CCCCCC2)n(-c2ccccc2)c(=O)c2ccccc12)c1ccccc1 is strictly below 70 nM.
A: False
